- System: K562
- TEST NAME: NCI tumour cell line growth inhibition, 48 h
Structures can show the parent of a compound that is named as a salt. Active and inactive are the calls of the source. Rule as the data show it: active = GI50 up to about 1.1 µM and inactive = higher.
Provide the reported GI50 of each item.

So what's the measured GI50 for this one? CC(=O)Oc1ccc(C2COc3cc(OC(C)=O)c(OC(C)=O)cc3C2)cc1 (stereo not drawn) 16.3 µM (inactive)

Form field: reported GI50 of C[C@]12CC[C@H](O)CC1=CC[C@@H]1C2CC[C@]2(C)Nc3c(cnn3-c3ccccc3)CC12 (stereo partly drawn) 2.61 µM (inactive)

Name the recorded GI50 for `CCCc1c(C(=O)OCC)[nH]c(-c2ccc(-c3[nH]c(C(=O)OCC)c(CCC)c3C(=O)OCC)s2)c1C(=O)OCC` . 79.4 µM (inactive)

What measured GI50 goes with CNCCC=C1c2ccccc2CCc2ccccc21 [NORTRIPTYLINE HYDROCHLORIDE] ? 11.4 µM (inactive)

// returns reported GI50 for input Nc1nc(Cl)c2ncn(CCCC(c3ccccc3)P(=O)(O)O)c2n1 (stereo not drawn) > 100 µM (inactive)

Can you share its GI50? I mean this compound: CCOC1OC(CO[Si](C)(C)C(C)(C)C)C(O)CC1n1ccc(=O)[nH]c1=O (stereo not drawn) 31.9 µM (inactive)

If you can, please state the reported GI50 value of `O=C1c2ccccc2C(=O)C1C(c1ccc(F)cc1)C1C(=O)c2ccccc2C1=O` . > 100 µM (inactive)

Param item = `CCOC(=O)NC(=O)c1cn(CCN2CCN(C(=O)CCCCCCCCCCC(=O)N3CCN(CCn4cc(C(=O)NC(=O)OCC)c(=O)[nH]c4=O)CC3)CC2)c(=O)[nH]c1=O` ; retrieve measured GI50. > 100 µM (inactive)

====

- Test system: SN12C
- TEST NAME: NCI tumour cell line growth inhibition, 48 h
Activity calls are given as the source filed them. No stated cut-off is given here; in the data, active = GI50 up to about 1.1 µM and inactive = higher.
ASSAY METRIC: GI50

Any idea what GI50 was measured for CC(=O)Oc1ccc(C2COc3cc(OC(C)=O)c(OC(C)=O)cc3C2)cc1 (stereo not given) ? 22.4 µM (inactive)

Data request, read-out GI50, for `CC(C)(C)n1c(=O)n2n(c1=O)Cc1cccc3cccc(c13)C2` 19.3 µM (inactive)

// query GI50 value for entry `CCSc1nc(N2CCCC2)s[s+]1.[O-][Cl+3]([O-])([O-])[O-]` 46.1 µM (inactive)

Using the record for `CCCCc1ccc(Nc2nc(N)c3[nH]cnc3n2)cc1` , report its GI50. 13.9 µM (inactive)

Any idea what its GI50 is? The compound is `CCOC(=O)NC(=O)c1cn(CCN2CCN(C(=O)CCCCCCCCCCC(=O)N3CCN(CCn4cc(C(=O)NC(=O)OCC)c(=O)[nH]c4=O)CC3)CC2)c(=O)[nH]c1=O` > 100 µM (inactive)

====

- System: NCI-H522
- TEST NAME: NCI tumour cell line growth inhibition, 48 h
The source made the active and inactive calls. Cut-off read from the data, not from the text of the source: active = GI50 up to about 1.1 µM and inactive = higher.
ASSAY METRIC: GI50

What value of GI50 has been reported for the following molecule? COC(=O)C12CCC(C(=O)OC)(Cc3c(c4ccccc4n3S(=O)(=O)c3ccccc3)C1)C2=O (centres undefined) 20 µM (inactive)

State the recorded GI50 for this entry: `Cc1ccccc1/N=N/c1ccc(/N=N/c2c(O)ccc3ccccc23)c(C)c1` > 100 µM (inactive)

Quick one: GI50 for CC(O)C1OC(n2ccc(=O)[nH]c2=O)CC1n1cncn1 (centres undefined) ? > 100 µM (inactive)

Sample `CCOc1ccccc1NC(=O)C1=C(C)NC(C)=C(C(=O)Nc2ccccc2OCC)C1c1ccc(NC(C)=O)cc1` — what was its GI50? 6.25 µM (inactive)

What measured GI50 goes with CC(=O)OCC1OC(OC2CC3C(C)(C)C(O)CC[C@]3(C)C3CCC45CC4(CC[C@H]5C(C)CC(O)C4OC4(C)C)[C@]23C)C(O)C(O)C1O (some centres undefined) ? 4.89 µM (inactive)

# lookup: GI50 of `O=C(O)[C@@]1(Cc2ccc(O)cc2)C[C@@H]2Cc3ccccc3N2N1` > 100 µM (inactive)

Returns the measured GI50 for the input molecule. Input: COC(=O)C1CCC(=S)N1C(=O)OCc1ccccc1 (centres undefined) 86.7 µM (inactive)

Give its GI50 value. Item: CC[C@@H]1CN2CCC1C[C@@H]2C(O)c1ccnc2ccc(OCCN3CCN(CCOc4ccc5nccc(C(O)[C@@H]6C[C@@H]7CCN6C[C@@H]7CC)c5c4)CC3)cc12 (some centres undefined) 12 µM (inactive)

Can you share its GI50? I mean this molecule: COc1cccc(C(C#N)NC23CC4CC(CC(C4)C2)C3)c1 (centres undefined) > 100 µM (inactive)

// GI50 lookup, key: `COc1ccc(O)c2c1C(=O)CCCC2=O` > 100 µM (inactive)

Which GI50 value is on record for `COc1cc(=O)n2c3ccccc3n(C)c2c1C#N` ? > 100 µM (inactive)

Which GI50 is listed for `O=c1c2cc(I)ccc2nc(SCc2nncs2)n1Cc1ccccc1` ? 4.78 µM (inactive)

Could you tell me which GI50 is on file for `O=c1c2cc(S(=O)(=O)Nc3c(Cl)cccc3Cl)ccc2ncn1NS(=O)(=O)c1ccc2ccccc2c1` ? 45.4 µM (inactive)

Form field: reported GI50 of `O=C(/N=N/c1cccc(Cl)c1)NNc1cccc(Cl)c1` 21.9 µM (inactive)

Data request, read-out GI50, for COC12OC3(C4OC41)C(C(=O)O[C@H]3CO[Si](C)(C)C(C)(C)C)C2S(=O)(=O)c1ccccc1 (some centres undefined) 17.1 µM (inactive)

Please report the recorded GI50 for CC(C)(C)[Si](C)(C)OCC1C=CC(n2cnc3c(N)ncnc32)O1 (centres undefined) . 33.2 µM (inactive)

What value of measured GI50 is listed for COc1cc2c(cc1O)C1CC(CC3CCCCN31)OC(=O)/C=C\c1ccc(O)c-2c1 (centres undefined) ? 26.5 µM (inactive)

Consider the molecule shown here: `CCOC(=O)C1=C(c2ccccc2)N(C(C)=O)Cc2ccccc21` What is its recorded GI50? 16.9 µM (inactive)

Need GI50, item `Cc1ccc(N(C)S(=O)(=O)c2ccccc2[N+](=O)[O-])cc1` 24.6 µM (inactive)
